Biological target: T1, REV7^WT (human, UniProt Q9UI95 1-211)
T1 construct: REV7 (MAD2L2), human, HORMA domain protein; 211 residues printed; wild type; also called WT-REV7; MAD2L2; source: E. coli LOBSTR, purified (metal chelating column, tag cleavage, SEC)
T1 sequence (Q9UI95 whole entry, the tested form may be a part): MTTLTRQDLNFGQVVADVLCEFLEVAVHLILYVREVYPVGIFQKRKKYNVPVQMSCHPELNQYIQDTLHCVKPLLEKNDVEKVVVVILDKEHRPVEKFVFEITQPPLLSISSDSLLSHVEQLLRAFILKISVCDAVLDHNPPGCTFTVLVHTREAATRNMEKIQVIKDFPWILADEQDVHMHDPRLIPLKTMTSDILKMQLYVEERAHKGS
Test: SPR; SHLD3^1-62 or REV3^1871-2014 immobilised on an SCR HC30M chip by EDC-NHS coupling; REV7^WT or REV7^R124A injected in two-fold dilutions; buffer B with 0.05% Tween 20; KD estimated from plateau values at the end of the dissociation phase
Settings: both partners purified
Result type: Kd

IN: May I ask what Kd has been recorded for SHLD3^1-62 (domain or fragment, human, UniProt Q6ZNX1 1-62, looked up, SHLD3, human, residues 1-62; The general protocol cleaves the tag; also called SHLD3^RBM; source: E. coli LOBSTR, purified) MTTEVILHYRPCESDPTQLPKIAEKAIQDFPTRPLSRFIPWFPYDGSKLPLRPKRSPPVISE ?
OUT: ~38 nM
